Provide the reported inhibition of each item.
Molecular target: Inhibitor of nuclear factor kappa-B kinase subunit epsilon (Homo sapiens)
Details: at 0.1 µM
Answers without a unit are incomplete; give the number and then its unit.

In: Report inhibition for c1cc(-c2cnn3nc(N4CCOCC4)ccc23)nc(NC2CC2)n1 tested on Inhibitor of nuclear factor kappa-B kinase subunit epsilon (Homo sapiens).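 Further: mean inhibition of IKKε reported, from the GSK PKIS dataset.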
Out: 2.67%

In: Now the compound O=S(=O)(CCNCc1ccc(-c2ccc3ncnc(Nc4ccc(OCc5cccc(F)c5)c(Cl)c4)c3c2)o1)c1ccccc1
Out: 12%

In: Input [O-][S+]1CCN(Cc2ccc(-c3ccc4ncnc(Nc5ccc(OCc6cccc(F)c6)c(Cl)c5)c4c3)o2)CC1
Out: 11.3%

In: What about this compound? COc1ccc2c(-c3ccnc(Nc4cccc(OC(F)(F)F)c4)n3)cnn2n1
Out: 9.38%

In: Ok, now NC(=O)c1sc(-n2cnc3ccc(C(F)(F)F)cc32)cc1OCc1ccccc1Br
Out: 5.17%

In: Can you check CCCN(CCS(C)(=O)=O)Cc1ccc(-c2ccc3ncnc(Nc4ccc(OCc5cccc(F)c5)c(Cl)c4)c3c2)o1 next?
Out: 2.17%

In: Moving on to the next compound: CCNC(=O)O[C@H]1CN[C@H](C#Cc2cc3ncnc(Nc4ccc(OCc5cccc(F)c5)c(Cl)c4)c3s2)C1
Out: 2.87%

In: Record: N#Cc1c(NC(=O)CN2CCOCC2)sc2c1CCCC2
Out: 9.02%

In: And for FC(F)(F)c1cccc(-c2nn3ncccc3c2-c2ccnc(Nc3ccc4c(c3)OCCO4)n2)c1 ?
Out: 2.48%

In: Repeat for the following compound: Nc1nc(-c2ccc(F)cc2)c(-c2ccc3ncccc3n2)s1
Out: 6.57%

In: Lookup CCOc1ccc2c(-c3ccnc(Nc4cccc(C(F)(F)F)c4)n3)cnn2n1
Out: 8.35%

In: Note, next up: c1ccc(-c2nc3n(c2-c2ccc4c(c2)OCO4)CCC3)nc1
Out: 1.33%

In: Next record, please: CCN1CCC(CC(=O)Nc2n[nH]c3nnc(-c4cccc(F)c4F)cc23)CC1
Out: 4.71%

In: Now this one: Cc1cccc2c1NC(=O)/C2=N\Nc1ccc(S(N)(=O)=O)cc1
Out: 3.32%

In: Thanks! And CCn1c(-c2nonc2N)nc2ccccc21 ?
Out: 2.9%

In: Note, next up: NS(=O)(=O)c1ccc(N/N=C2\C(=O)Nc3ccc4ncccc4c32)cc1
Out: 8.67%

In: Fc1ccc(-c2nn3ccccc3c2-c2ccncc2)cc1 , same question.
Out: 2.31%

In: Item: CCN(CC)S(=O)(=O)c1ccc(OC)c(Nc2ncc(-c3ccccc3)o2)c1
Out: 2.98%

In: Same thing, different compound: COc1cccc(-n2ncc3c(N/N=C/c4ccc(F)cc4)ncnc32)c1
Out: 14.1%

In: What do we get for COC(=O)c1sc(-n2cnc3cc(OC)c(OC)cc32)cc1OCc1ccccc1C(F)(F)F ?
Out: 3.88%

In: What about CN(C)CCOc1ccc(-c2nc(-c3ccncc3)c(-c3ccc4c(c3)CC/C4=N\O)[nH]2)cc1 ?
Out: 9.22%

In: Record: COc1ccc(-c2nn3ncccc3c2-c2ccnc(Nc3ccc4c(c3)OCCO4)n2)cc1
Out: 1.54%

In: Moving on to the next compound: CS(=O)(=O)CCNCc1ccc(-c2ccc3ncnc(Nc4ccc(OCc5ccccc5)c(C(F)(F)F)c4)c3c2)o1
Out: 6.52%

In: Next compound: Nc1nc(-c2cccc(Cl)c2)c(-c2ccc3ncccc3n2)s1
Out: 9.04%

In: Continue with Cc1cccc(Nc2ncc(-c3ccccc3)o2)c1
Out: 5.18%

In: COc1ccc2[nH]c3c4[nH]c5ccc(OC)cc5c4c4c(c3c2c1)C(=O)NC4=O , same question.
Out: 13.5%

In: Could you do the same for COc1cccc(-c2c[nH]c3c(N/N=C/c4ccncc4)ncnc23)c1 , please?
Out: 2.96%

In: How about CCn1c(-c2nonc2N)nc2c(C#CC(C)(C)O)ncc(OC3CCNCC3)c21 ?
Out: 79.5%

In: Another compound: CCn1c(-c2nonc2N)nc2c(C#CC(C)(C)O)nc(OC[C@H](N)c3ccccc3)cc21
Out: 8.21%

In: Repeat for the following compound: CNC(=O)c1cc(-c2ccc(F)cc2)cc(-c2ccc(S(=O)(=O)N3CCCC3)cc2)c1N
Out: 2.88%

In: Okay, and O=C(Nc1n[nH]c2cc(-c3ccc(F)cc3)ccc12)C1CC1 ?
Out: 4.25%

In: Proceed to COc1cc(/C=N/Nc2ncnc3[nH]ncc23)ccc1O
Out: 0.87%

In: What about this compound? Clc1ccc(-c2nn3ncccc3c2-c2ccnc(Nc3ccccc3)n2)cc1
Out: 1.23%

In: Try CN1CCC(n2cnc(-c3ccc(F)cc3)c2-c2ccnc(Nc3ccccc3)n2)CC1 next.
Out: 3.59%

In: Also need N#Cc1c(NC(=O)c2ccc(F)cc2)sc2c1CCCC2 , thanks.
Out: 2.43%

In: Now the compound Cc1ccc2c(-c3ccnc(Nc4ccccc4)n3)c(-c3ccc(F)cc3)nn2n1
Out: 1.25%

In: Then what about the compound CC(=O)NCc1cccc(C#Cc2cncnc2Nc2ccc(OCc3cccc(F)c3)c(Cl)c2)c1 ?
Out: 0.37%

In: Next: COc1ccc(-c2cc(-c3c[nH]nc3-c3ccccn3)ccn2)cc1
Out: 7.81%
